Entries below carry reported Ki on Adrenergic receptor alpha-1 (Rattus norvegicus, UniProt P15823+P23944+P43140).
measured_parameter: Ki (nM)

Fc1ccc2[nH]cc(CCCNCCOc3cccc4[nH]cnc34)c2c1 100
COc1ccc(F)cc1OCCNCCc1c[nH]c2ccccc12 3.3
Fc1cc2c(c(OCCNCCc3c[nH]c4ccc(F)cc34)c1)OCC2 100
Fc1ccc2[nH]cc(CCCNCCOc3ccccc3)c2c1 3.4

A. Fc1cc2c(c(OCCNCCc3c[nH]c4ccccc34)c1)OCCC2
B. COc1ccccc1OCCNCCCCc1c[nH]c2ccccc12
C. Fc1cc(OCCNCCCc2c[nH]c3ccc(F)cc23)c2c(c1)OCCO2
Query :: Would you mind ranking these molecules by ascending Ki? State the ranking by listing the labels in the requested order.
Result :: A, C, B

The reported measurements were obtained from ChEMBL document CHEMBL1148370.
